Field: kon. Provide a value for each of the binders that follow.
target.under.test: ACE2 (human, UniProt Q9BYF1 18-740)
Sequence (Q9BYF1 18-740 limits assumed): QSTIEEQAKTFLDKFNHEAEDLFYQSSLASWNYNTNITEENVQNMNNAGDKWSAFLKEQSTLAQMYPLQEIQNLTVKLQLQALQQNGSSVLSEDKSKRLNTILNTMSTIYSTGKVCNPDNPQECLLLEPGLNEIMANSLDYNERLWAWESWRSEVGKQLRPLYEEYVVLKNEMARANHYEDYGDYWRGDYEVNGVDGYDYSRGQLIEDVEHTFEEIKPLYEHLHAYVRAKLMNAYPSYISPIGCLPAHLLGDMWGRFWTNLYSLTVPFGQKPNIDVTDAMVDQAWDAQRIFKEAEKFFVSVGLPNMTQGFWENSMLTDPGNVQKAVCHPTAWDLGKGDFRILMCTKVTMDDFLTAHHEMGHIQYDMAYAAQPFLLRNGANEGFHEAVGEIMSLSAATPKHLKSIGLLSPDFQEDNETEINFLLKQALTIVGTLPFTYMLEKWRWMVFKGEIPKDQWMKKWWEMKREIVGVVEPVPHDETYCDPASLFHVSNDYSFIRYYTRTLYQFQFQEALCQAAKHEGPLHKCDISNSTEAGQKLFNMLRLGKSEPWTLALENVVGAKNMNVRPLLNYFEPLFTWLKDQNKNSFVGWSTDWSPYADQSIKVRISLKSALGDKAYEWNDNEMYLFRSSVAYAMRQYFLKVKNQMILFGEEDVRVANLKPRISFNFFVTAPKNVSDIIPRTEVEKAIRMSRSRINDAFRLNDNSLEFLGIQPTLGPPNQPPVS
Don't forget the unit after the number, please.

ACE2 variant antibody 4-89 (VHH) VHH: EVQLVESGGGLVQPGGSLRLSCAASGFAFGDNWIGWFRQAPGKEREWVASISSGGTTAYADNVKGRFTIIADNSKNTAYLQMNSLKPEDTAVYYCAHRGGWLRPWGYWGQGTLVTVSS; 2.04e+06 M⁻¹ s⁻¹

Value of kon reported for the binder ACE2 variant antibody 4-76 (VHH) VHH: EVQLVESGGGLVQPGGSLRLSCAASGRTFGDYAMGWFRQAPGKERELVAPINWSGGSTYYADSVKGRFTISADNSKNTAYLQMNSLKPEDTAVYYCATDPPLFWGQGTLVTVSS is 135000 M⁻¹ s⁻¹

Data provenance is patent US20210355194A1.
